System: non-small cell lung carcinoma cell strain PC-9 (EGFR delE746-A750 deletion mutation)
TEST_DESCRIPTION: In-vitro tumor cell proliferation inhibition, MTT
Type: cell-based, human
COND: 72 hours
OUTCOME_MEASURE: pIC50
Quick note: pIC50 values are minus log10 of concentrations in mol/L.

Solved cases (3 shown):
CC(C)n1c(Nc2ccc(OCc3cccc(F)c3)c(Cl)c2)nc2cnc(Nc3ccc(N4CCOCC4)cc3)nc21 [Compounds 8-42] ... 5.48
CN1CCN(c2ccc(Nc3ncc4nc(Nc5cc(F)ccc5F)n(C5CCCC5)c4n3)cc2)CC1 [Compounds 8-55] ... 9.00
CN1CCN(c2ccc(Nc3ncc4nc(Nc5cccc(F)c5)n(C5CCCC5)c4n3)cc2)CC1 [Compounds 8-49] ... 9.70

Need pIC50 of CN1CCN(c2ccc(Nc3ncc4nc(Nc5ccc(Br)cc5F)n(C5CCCC5)c4n3)cc2)CC1 [Compounds 8-47] , thanks.
7.79

Need pIC50 of CC(C)n1c(Nc2ccc(Cl)nc2)nc2cnc(Nc3ccc(N4CCN(C)CC4)cc3)nc21 [Compounds 8-41] , thanks.
6.68

Need pIC50 of CN1CCN(c2ccc(Nc3ncc4nc(Nc5cc(Cl)cc(Cl)c5)n(C5CCCC5)c4n3)cc2)CC1 [Compounds 8-54] , thanks.
6.69

Need pIC50 of CN1CCN(c2ccc(Nc3ncc4nc(Nc5cc(Cl)c(Cl)cc5Cl)n(C5CCCC5)c4n3)cc2)CC1 [Compounds 8-57] , thanks.
6.75

----------
Entries and their measured IC50 follow.
System: non-small cell lung carcinoma cell strain H1975 (EGFR L858R/T790M mutation)
TEST_DESCRIPTION: In-vitro tumor cell proliferation inhibition, MTT
Type: cell-based, human
COND: 72 hours
# output: bare number, implied unit nM

Need IC50 of CC(C)n1c(Nc2ccccc2)nc2cnc(Nc3ccc(C(=O)NN4CCN(C)CC4)cc3)nc21 , thanks.
7600

Need IC50 of CC(C)n1c(Nc2ccc(F)c(Cl)c2)nc2cnc(Nc3ccc(N4CCN(C)CC4)cc3)nc21 , thanks.
2000

Need IC50 of Cc1nc(Nc2ccc(N3CCN(C)CC3)cc2)nc2c1nc(Nc1ccccc1)n2C(C)C , thanks.
6310

Need IC50 of CN1CCN(c2ccc(Nc3ncc4nc(Nc5ccccc5)n(C5CCCCC5)c4n3)cc2)CC1 , thanks.
182

Need IC50 of CN1CCN(c2ccc(Nc3ncc4nc(Nc5cccc(Cl)c5)n(C5CCCC5)c4n3)cc2)CC1 , thanks.
271

Need IC50 of CN1CCN(c2ccc(Nc3ncc4nc(Nc5ccc(Br)cc5)n(C5CCCC5)c4n3)cc2)CC1 , thanks.
231

Need IC50 of CC(C)n1c(Nc2ccc(Cl)nc2)nc2cnc(Nc3ccc(N4CCN(C)CC4)cc3)nc21 , thanks.
501

Need IC50 of CCN1CCN(Cc2ccc(Nc3ncc4nc(Nc5ccccc5)n(C5CCCC5)c4n3)cc2)CC1 , thanks.
248

----------
Entries and their measured pIC50 follow.
Tested on: colon cancer cell strain SW480
TEST_DESCRIPTION: In-vitro tumor cell proliferation inhibition, MTT
Format: cell-based, human
COND: 72 hours
Quick note: pIC50 values are minus log10 of concentrations in mol/L.

Solved cases (5 shown):
CN1CCN(c2ccc(Nc3ncc4nc(Nc5ccc(Br)cc5)n(C5CCCC5)c4n3)cc2)CC1 [Compounds 8-43] ... 5.24
CN1CCN(c2ccc(Nc3ncc4nc(Nc5cc(F)ccc5F)n(C5CCCC5)c4n3)cc2)CC1 [Compounds 8-55] ... 5.27
CN1CCN(c2ccc(Nc3ncc4nc(Nc5ccc(Br)cc5F)n(C5CCCC5)c4n3)cc2)CC1 [Compounds 8-47] ... 5.26
C#Cc1cccc(Nc2nc3cnc(Nc4ccc(N5CCN(C)CC5)cc4)nc3n2C2CCCC2)c1 [Compounds 8-46] ... 5.40
CN1CCN(c2ccc(Nc3ncc4nc(Nc5ccccc5)n(C5CCCC5)c4n3)cc2)CC1 [Compounds 8-26] ... 5.46

# ---- query compound ----
Need pIC50 of c1ccc(Nc2nc3cnc(Nc4ccc(CN5CCOCC5)cc4)nc3n2C2CCCC2)cc1 [Compounds 8-48] , thanks.
5.00

----------
TARGET_OF_ASSAY: ALK (Homo sapiens (Human))
Sequence (Q9UM73 19-1620): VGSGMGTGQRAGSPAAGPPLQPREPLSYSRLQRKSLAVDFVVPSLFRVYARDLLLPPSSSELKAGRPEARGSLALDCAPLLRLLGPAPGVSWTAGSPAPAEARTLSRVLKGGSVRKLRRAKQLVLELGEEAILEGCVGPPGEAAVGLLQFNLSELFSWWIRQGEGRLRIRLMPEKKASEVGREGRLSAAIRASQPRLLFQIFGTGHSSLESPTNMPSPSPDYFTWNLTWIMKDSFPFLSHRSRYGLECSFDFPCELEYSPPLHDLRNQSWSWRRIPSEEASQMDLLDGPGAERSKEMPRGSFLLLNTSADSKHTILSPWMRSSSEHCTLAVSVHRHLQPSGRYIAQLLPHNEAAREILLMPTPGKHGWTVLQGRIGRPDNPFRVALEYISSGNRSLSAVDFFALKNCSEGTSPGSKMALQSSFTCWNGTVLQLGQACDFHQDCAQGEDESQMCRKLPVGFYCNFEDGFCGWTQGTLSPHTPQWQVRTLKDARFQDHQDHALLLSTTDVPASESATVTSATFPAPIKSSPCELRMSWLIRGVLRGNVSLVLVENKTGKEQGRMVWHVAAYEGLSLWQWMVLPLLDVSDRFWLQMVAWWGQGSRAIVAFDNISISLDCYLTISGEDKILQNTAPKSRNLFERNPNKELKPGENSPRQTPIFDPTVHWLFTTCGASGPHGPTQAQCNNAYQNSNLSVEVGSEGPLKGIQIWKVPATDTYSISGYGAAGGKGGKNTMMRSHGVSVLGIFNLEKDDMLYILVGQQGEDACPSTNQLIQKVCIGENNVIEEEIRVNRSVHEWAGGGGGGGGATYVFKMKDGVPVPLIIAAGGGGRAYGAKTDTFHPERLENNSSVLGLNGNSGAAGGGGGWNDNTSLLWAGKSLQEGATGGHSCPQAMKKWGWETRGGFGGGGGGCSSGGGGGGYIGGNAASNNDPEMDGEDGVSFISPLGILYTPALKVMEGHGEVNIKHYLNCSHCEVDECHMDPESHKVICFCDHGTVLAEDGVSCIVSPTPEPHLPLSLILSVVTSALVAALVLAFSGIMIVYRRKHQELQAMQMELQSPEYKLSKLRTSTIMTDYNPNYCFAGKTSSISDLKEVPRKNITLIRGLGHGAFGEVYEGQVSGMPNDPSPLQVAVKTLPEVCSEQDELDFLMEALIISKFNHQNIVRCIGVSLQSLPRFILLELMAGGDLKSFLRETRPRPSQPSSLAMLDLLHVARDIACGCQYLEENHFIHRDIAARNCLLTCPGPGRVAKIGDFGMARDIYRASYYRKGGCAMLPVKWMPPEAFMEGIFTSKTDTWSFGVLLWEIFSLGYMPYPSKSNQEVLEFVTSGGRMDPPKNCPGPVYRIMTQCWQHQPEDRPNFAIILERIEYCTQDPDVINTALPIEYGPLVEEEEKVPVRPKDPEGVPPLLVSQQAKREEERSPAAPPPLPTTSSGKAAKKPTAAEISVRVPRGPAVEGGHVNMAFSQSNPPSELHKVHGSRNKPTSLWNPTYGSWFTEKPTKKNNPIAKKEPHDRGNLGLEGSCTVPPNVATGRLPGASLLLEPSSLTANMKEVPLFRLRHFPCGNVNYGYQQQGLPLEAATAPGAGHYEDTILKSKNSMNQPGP
TEST_DESCRIPTION: Kinase inhibitory activity, isotopic labeling (γ-33P-ATP)
Type: biochemical
COND: compound at 10 μM
Entries and their measured The kinase activity inhibitory rate (%) by the tested compounds at 10 μM ALK follow.
# output: bare number, implied unit %

Solved cases (3 shown):
CC(C)n1c(Nc2ccc(C(F)(F)F)cc2)nc2cnc(Nc3ccc(N4CCN(C)CC4)cc3)nc21 ... 30
CC(C)n1c(Nc2cccnc2)nc2cnc(Nc3ccc(N4CCN(C)CC4)cc3)nc21 ... 15
COc1ccc(Nc2nc3cnc(Nc4ccc(N5CCN(C)CC5)cc4)nc3n2C(C)C)cc1 ... 13

Need The kinase activity inhibitory rate (%) by the tested compounds at 10 μM ALK of CC(C)n1c(Nc2cccc(C(F)(F)F)c2)nc2cnc(Nc3ccc(N4CCN(C)CC4)cc3)nc21 , thanks.
17

Need The kinase activity inhibitory rate (%) by the tested compounds at 10 μM ALK of CC(C)n1c(Nc2ccccc2)nc2cnc(Nc3ccc(N4CCN(C)CC4)cc3)nc21 , thanks.
45

Need The kinase activity inhibitory rate (%) by the tested compounds at 10 μM ALK of CC(C)n1c(Nc2ccc(Br)cc2)nc2cnc(Nc3ccc(N4CCN(C)CC4)cc3)nc21 , thanks.
40

Need The kinase activity inhibitory rate (%) by the tested compounds at 10 μM ALK of CC(C)n1c(Nc2ccc(C(=O)Nc3cccc(F)c3)cc2)nc2cnc(Nc3ccc(N4CCN(C)CC4)cc3)nc21 , thanks.
70

----------
TARGET_OF_ASSAY: MET (Homo sapiens (Human))
Sequence (P08581 25-1390): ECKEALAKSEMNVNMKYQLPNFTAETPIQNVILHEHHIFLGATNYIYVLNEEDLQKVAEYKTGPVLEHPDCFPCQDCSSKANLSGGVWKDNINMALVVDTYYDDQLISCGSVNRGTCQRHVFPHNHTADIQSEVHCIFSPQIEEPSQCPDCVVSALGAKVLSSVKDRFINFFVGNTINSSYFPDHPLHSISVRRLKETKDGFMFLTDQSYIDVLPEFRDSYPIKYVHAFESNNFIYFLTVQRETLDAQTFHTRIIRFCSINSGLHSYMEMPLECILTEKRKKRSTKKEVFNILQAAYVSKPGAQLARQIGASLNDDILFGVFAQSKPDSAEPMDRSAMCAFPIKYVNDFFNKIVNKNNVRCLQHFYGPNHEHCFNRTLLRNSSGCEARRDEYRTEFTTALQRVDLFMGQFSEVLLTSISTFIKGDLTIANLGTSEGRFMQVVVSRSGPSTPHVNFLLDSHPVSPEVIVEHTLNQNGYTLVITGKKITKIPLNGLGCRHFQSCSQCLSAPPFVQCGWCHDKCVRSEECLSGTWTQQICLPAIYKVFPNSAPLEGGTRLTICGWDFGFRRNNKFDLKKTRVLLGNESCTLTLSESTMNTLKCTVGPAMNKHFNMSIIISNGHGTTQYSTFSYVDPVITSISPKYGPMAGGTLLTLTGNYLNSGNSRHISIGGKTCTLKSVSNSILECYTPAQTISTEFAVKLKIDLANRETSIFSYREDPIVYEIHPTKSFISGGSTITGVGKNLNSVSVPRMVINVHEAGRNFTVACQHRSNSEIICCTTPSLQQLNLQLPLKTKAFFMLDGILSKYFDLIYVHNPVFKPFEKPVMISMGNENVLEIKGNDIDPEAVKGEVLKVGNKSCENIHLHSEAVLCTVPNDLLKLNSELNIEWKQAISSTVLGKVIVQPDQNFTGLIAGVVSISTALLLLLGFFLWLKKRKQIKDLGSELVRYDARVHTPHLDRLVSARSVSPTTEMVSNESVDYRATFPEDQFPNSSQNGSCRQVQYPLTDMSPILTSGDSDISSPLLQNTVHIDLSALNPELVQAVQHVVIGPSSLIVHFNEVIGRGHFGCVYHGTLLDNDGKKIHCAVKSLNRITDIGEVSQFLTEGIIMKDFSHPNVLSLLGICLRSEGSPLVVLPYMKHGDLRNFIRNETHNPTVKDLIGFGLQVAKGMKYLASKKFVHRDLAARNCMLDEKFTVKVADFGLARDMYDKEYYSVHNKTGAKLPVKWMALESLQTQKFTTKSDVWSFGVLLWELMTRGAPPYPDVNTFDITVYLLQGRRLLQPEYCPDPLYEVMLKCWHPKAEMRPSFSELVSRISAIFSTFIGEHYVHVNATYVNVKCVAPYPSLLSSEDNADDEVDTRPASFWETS
TEST_DESCRIPTION: Kinase inhibitory activity, isotopic labeling (γ-33P-ATP)
Format: biochemical
COND: compound at 10 μM
OUTCOME_MEASURE: The kinase activity inhibitory rate (%) by the tested compounds at 10 μM MET
# output: bare number, implied unit %

CC(C)n1c(Nc2ccc(OCc3cccc(F)c3)c(Cl)c2)nc2cnc(Nc3ccc(N4CCN(C)CC4)cc3)nc21 ... 97

Need The kinase activity inhibitory rate (%) by the tested compounds at 10 μM MET of C#Cc1cccc(Nc2nc3cnc(Nc4ccc(N5CCN(C)CC5)cc4)nc3n2C(C)C)c1 , thanks.
93

Need The kinase activity inhibitory rate (%) by the tested compounds at 10 μM MET of CC(C)n1c(Nc2cccc(Br)c2)nc2cnc(Nc3ccc(N4CCN(C)CC4)cc3)nc21 , thanks.
93

Need The kinase activity inhibitory rate (%) by the tested compounds at 10 μM MET of CN1CCN(c2ccc(Nc3ncc4nc(Nc5ccccc5)n(C5CC5)c4n3)cc2)CC1 , thanks.
1

Need The kinase activity inhibitory rate (%) by the tested compounds at 10 μM MET of CC(C)n1c(Nc2ccc(NC(=O)Nc3ccc(F)c(Cl)c3)cc2)nc2cnc(Nc3ccc(N4CCN(C)CC4)cc3)nc21 , thanks.
99

Need The kinase activity inhibitory rate (%) by the tested compounds at 10 μM MET of CC(C)n1c(NC2CCCCC2)nc2cnc(Nc3ccc(N4CCN(C)CC4)cc3)nc21 , thanks.
0

Need The kinase activity inhibitory rate (%) by the tested compounds at 10 μM MET of CC(C)n1c(Nc2cccnc2)nc2cnc(Nc3ccc(N4CCN(C)CC4)cc3)nc21 , thanks.
50

----------
System: liver cancer cell strain Hep G2
TEST_DESCRIPTION: In-vitro tumor cell proliferation inhibition, MTT
Assay type: cell-based, human
COND: 72 hours, read-out: HEPG2 (IC50)
Description: The object of this assay was to test the inventive compounds for the inhibitory activity of in-vitro tumor cell proliferation. The MTT (tetreamethyl-azo-zole-salt) colorimetric method was used in this assay. […]
Entries and their measured pIC50 follow.
Quick note: pIC50 values are minus log10 of concentrations in mol/L.

CN1CCN(c2ccc(Nc3ncc4nc(Nc5ccc(Br)cc5F)n(C5CCCC5)c4n3)cc2)CC1 ... 5.07
CN1CCN(c2ccc(Nc3ncc4nc(Nc5ccccc5)n(C5CCCC5)c4n3)cc2)CC1 ... 5.20
CC(C)n1c(Nc2cccc(Br)c2)nc2cnc(Nc3ccc(N4CCN(C)CC4)cc3)nc21 ... 4.95
CN1CCN(c2ccc(Nc3ncc4nc(Nc5cccc(O)c5)n(C5CCCC5)c4n3)cc2)CC1 ... 5.09
CC(C)n1c(Nc2ccc(F)c(Cl)c2)nc2cnc(Nc3ccc(N4CCN(C)CC4)cc3)nc21 ... 5.22
CN1CCN(c2ccc(Nc3ncc4nc(Nc5ccccc5)n(C5CCCCC5)c4n3)cc2)CC1 ... 5.08

Need pIC50 of CN1CCN(c2ccc(Nc3ncc4nc(Nc5cc(F)ccc5F)n(C5CCCC5)c4n3)cc2)CC1 , thanks.
5.33
